Let's look at some compounds and their measured recovery at 6 h, 1 µM.
Assay: Plasma protein binding by equilibrium dialysis, human
Assay type: in vitro ADME
Details: human, plasma, human plasma, equilibrium dialysis, 37° C., 6 hours
# value in %; strip the unit string

Some compounds with known recovery at 6 h, 1 µM results, for comparison:
>>> result_number("COCCN1CCC[C@@H]1Cc1c[nH]c2ccc(OC)cc12 [(R) I-98]")
101
>>> result_number("[2H]C([2H])(c1c[nH]c2ccc(OCCCCN3C(=O)c4ccccc4C3=O)cc12)[C@H]1CCCN1C([2H])([2H])[2H] [(R) I-244]")
90.1

From here, focus on the item given below.
Specify reported recovery at 6 h, 1 µM for the compound shown: CC(=O)N1CCN(c2ccc(OCC3COC(Cn4ccnc4)(c4ccc(Cl)cc4Cl)O3)cc2)CC1 (stereo not drawn) [Ketoconazole, reference compound] 101
